# credit: patent US20220073920

Test system: Human adenovirus type 2 whole virion (HAdV-2) (Human adenovirus 2)
Settings: ELASA; DPBS + 3 mM MgCl2 + 20 mM NaCl (printed NaCl2), pH 7.4, room temperature; n=6
property name: pKd
Convention used: pKd is expressed as -log10 of the molar concentration.

query: // lookup pKd for GTGCCAGCTATGCCATTGGGGGACAATATCGCAGTGCATCTTCCTCTAGCGTCTATCTCTGCTGC [aptamer 10]
result: 8.44

---

Test system: Human adenovirus type 2 whole virion (HAdV-2) (Human adenovirus 2)
Conditions: ELASA; DPBS + 3 mM MgCl2 + 20 mM NaCl (printed NaCl2), pH 7.4, room temperature; n=7
property name: pKd
Convention used: pKd is expressed as -log10 of the molar concentration.

query: // lookup pKd for GTGCCAGCTATGCCATTGGGCGGGTCGTCCAATTCGAGAGGTCCCCTAGCGTCTATCTCTGCTGC [aptamer 20]
result: 7.12
